Origin of measurements: patent US9573987B2

This listing pairs molecules with measured pEC50.
- Test system: human mammary epithelial cells (HMEC)
- assay_name: Human mammary epithelial cells proliferation ([14C]-thymidine)
- Type: cell-based
- condition_notes: Table 15; read-out: Proliferation HMEC EC50
- Description: The plate was incubated 4 h at 37° C., 5% CO2 and 90% humidity.
Please express pEC50 as -log10 of the molar concentration.

// known answers, use as guide
{"molecule": "DP22LysC: DP22 cleaved at the lysine of CTP to produce a two chain insulin (protein) chain 1: APPPSLPSPSRLPGPSDTPILPQEEEEERGPEHLCGAHLVDALYLVCGDRGFYSSSSRAPPPSLPSPSRLPGPSDTPILPQK chain 2: GIVDECCHRSCDLRRLENYCN", "pEC50": 7.53}
{"molecule": "DP20LysC: DP20 cleaved at the lysine of CTP to produce a two chain insulin (protein) chain 1: GPEHLCGAHLVDALYLVCGDRGFYSSSSRAPPPSLPSPSRLPGPSDTPILPQK chain 2: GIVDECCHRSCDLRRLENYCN", "pEC50": 8.09}
{"molecule": "DP22: CTP-E5R-B chain-CTP(K)-A Chain (SEQ ID NO: 91) (protein, single chain insulin analog) MGSSSSKAPPPSLPSPSRLPGPSDTPILPQEEEEERGPEHLCGAHLVDALYLVCGDRGFYSSSSRAPPPSLPSPSRLPGPSDTPILPQKGIVDECCHRSCDLRRLENYCN", "pEC50": 6.37}

Consider GEEEEEKGPEHLCGAHLVDALYLVCGDRGFYSSSSRAPPPSLPSPSRLPGPSD TPILPQKGIVDECCHRSCDLRRLENYCN (protein, listed as Homo sapiens) GEEEEEKGPEHLCGAHLVDALYLVCGDRGFYSSSSRAPPPSLPSPSRLPGPSDTPILPQKGIVDECCHRSCDLRRLENYCN . Its measured pEC50 is 6.83
